Tested on: SK-MEL-5 melanoma
assay.explanation: NCI-60 one-dose screen, 48 h (100 = growth as untreated, 0 = no growth, -100 = all killed)
measurement.parameters: 10 µM unless noted
This is part of a sample that, as a whole, favours compounds with a hit. Of some 83,000 tested, about 20% had one in any assay.
Let's look at some molecules and their measured growth.
Report only the number, with the unit % understood.

Known results for molecules:
[Q] Provide the documented growth with SK-MEL-5 melanoma as the system for `Nc1c(C(=O)c2ccc(Cl)cc2)sc(Nc2ccccc2)c1-c1nc2ccccc2s1`
[A] 55.1

[Q] Record lookup: for SK-MEL-5 melanoma, what growth belongs to `CN(C)CCOc1nc2c3cc([N+](=O)[O-])ccc3nn2c2ccccc12` ?
[A] 45.6

[Q] Item `Cc1c(-c2cnc3ccc(Cl)cc3c2C(=O)O)nnn1-c1ccc(Cl)cc1` with SK-MEL-5 melanoma - growth?
[A] 106

[Q] Form field - read-out: growth; system: SK-MEL-5 melanoma; submitted item: `CC/C(=C(/c1ccc(Cl)cc1)c1ccc(OCCCN(C)C)cc1)c1ccc(OC)cc1`
[A] 63.4

[Q] Reported growth for SK-MEL-5 melanoma, given `CCOc1ccccc1NC(=O)CCC(=O)OC` ?
[A] 99.7

[Q] # query: growth | item `CO[C@H]1CC(c2ccc[nH]2)=N[C@]12O[C@@H](C)C[C@@H]1CCCCCCCc3ccc([nH]3)[C@H]12` | system: SK-MEL-5 melanoma
[A] -38.4

Further cases:
[Q] Hi! What's the reported growth for `C=C(C)[C@@H]1CCC[C@]2(C(=O)OC)CC[C@]3(C)[C@@H](CC[C@@H]4[C@@]5(C)CCCNC(C)(C)[C@@H]5CC[C@]43C)[C@@H]12` on SK-MEL-5 melanoma?
[A] 90

[Q] Reported growth for SK-MEL-5 melanoma, given `COc1cc2c(cc1OC)CC[N+](CCC[N+](C)(C)C)=C2` ?
[A] 104

[Q] # get_value(readout= growth, system= SK-MEL-5 melanoma) for `CS(=O)(=O)Nc1cc(-c2ccc3ncnc(Nc4cccc(Cl)c4)c3c2)cnc1Cl`
[A] -95.6

[Q] Lab note: need growth with SK-MEL-5 melanoma for entry Nc1nc(N)c2c(n1)NC(c1cccc(Nc3ccnc4cc(C(F)(F)F)ccc34)c1)CC(c1ccc(Cl)cc1)=N2 (stereo not given) , please look it up.
[A] 47.2

[Q] GET /values?readout=growth&system=SK-MEL-5 melanoma&item= `c1ccc2c(-c3cnn4cc(-c5ccc(N6CCNCC6)cc5)cnc34)ccnc2c1`
[A] -84.7

[Q] Request: growth, test system SK-MEL-5 melanoma, entry COc1cccc(C2C3=C(COC3=O)N(CCO)c3cc4c(cc32)OCCO4)c1 (stereo not given)
[A] -12.1

====

System: M14 melanoma
assay.explanation: NCI-60 one-dose screen, 48 h
measurement.parameters: 10 µM unless noted
About 83,000 compounds went through this panel and 20% of them were active in at least one assay; those are over-represented in the sample as a whole. Activity calls are given as the source filed them. The calls were made as follows: active = growth percent below 10; inactive = the rest.
Can you answer with just one of these options? y for active, n for inactive

Worked cases, answers included:
[Q] Outcome? `O=[N+]([O-])c1ccc(N/N=C\c2cc(Cl)ccc2O)nc1`
[A] n

[Q] What outcome does the record of this test show for `CC(C)(C)n1cc(-c2ccnc(NCCNS(=O)(=O)c3ccc(C(F)(F)F)cc3)c2)c(-c2ccccc2)n1` ?
[A] n

[Q] Query: recorded result category for `O=C1CCc2c(sc3[nH]c(=S)n(-c4cc(C(F)(F)F)cc(C(F)(F)F)c4)c(=O)c23)C1` in this test
[A] n

[Q] Please indicate how the test categorized `Cc1[nH]c(C(=O)Nc2ccc(C(N)=O)cc2OC(C)C)c(Cl)c1Cl` .
[A] n

[Q] Please share the test call associated with `COc1ccc(Nc2nc(Nc3cc(C)[nH]n3)c3cc(OC)c(OC)cc3n2)cc1` .
[A] y

Others:
[Q] What call does the record list for N#C/C(=C\c1cccc2cnccc12)N1N=NC2C=CC=CC21 (configuration not stated) ?
[A] n

[Q] Which outcome did this test record for the compound CCN1C(=O)N(CC)C2C1NN=c1s/c(=C\c3ccc(F)cc3)c(=O)n12 (configuration not stated) ?
[A] n

[Q] Just curious, what result did `COc1ccc(C(=O)/C=C/c2ccc(C)cc2)cc1S(N)(=O)=O` get here?
[A] n

[Q] What did this assay record as the result for `COc1ccc(CNc2ccc3nc(CCC4CCCCC4)[nH]c3c2)cc1` ?
[A] n

[Q] Look up the recorded call for C=C1CC[C@@H]2[C@](C)(COC(C)=O)[C@H](OC(C)=O)CC[C@@]2(C)[C@@H]1CC(Nc1ccc(S(=O)(=O)Nc2nccc(C)n2)cc1)C1=CCOC1=O (some centres not stated) in this test.
[A] n

[Q] Dear colleague, could you share the recorded outcome for O=C(OCC(O)C(=O)NC12CC3CC(CC(C3)C1)C2)c1cccc(Br)c1 (configuration not stated) when you have a moment?
[A] n

[Q] Outcome? Cc1[nH]c(C(=O)Nc2ccccc2OC2CCNC2)c(Cl)c1Cl (configuration not stated)
[A] n

====

Test system: RXF 393 renal
assay.explanation: NCI-60 one-dose screen, 48 h
measurement.parameters: 10 µM unless noted
About 83,000 compounds went through this panel and 20% of them were active in at least one assay; those are over-represented in the sample as a whole. Calls of active or inactive are those of the source. The calls were made as follows: active = growth percent below 10; inactive = the rest.
Allowed answers: active, inactive

Example results:
[Q] Just curious, what result did `COc1ccc2c(c1)c(-c1nc(-c3cn(C)c4ccncc34)cs1)cn2C` get here?
[A] active

[Q] How was `Nc1ccc(Cl)c2c(=O)c3ccccc3[nH]c12` classified in this test?
[A] inactive

[Q] Entry `C=CCn1c(SCC(=O)Nc2ccc(C(=O)/C=C/c3ccc(Cl)cc3)cc2)nnc1-c1ccccc1` : call = ?
[A] inactive

[Q] Which outcome was assigned to `CC(C)C(=O)Nc1ncc(C(=O)NCCN(Cc2ccccc2)C(=O)c2ccc(S(=O)(=O)Nc3ccccc3)cc2)s1` in this test?
[A] inactive

[Q] Hi, sorry to bother you, what did the test record for `COc1cc(-c2ccc(-c3ccc(C(=N)N)s3)s2)cc(OC)c1OC` ?
[A] inactive

Others:
[Q] // outcome(item) with item = `CC1(C)CC[C@]2(CO)CC[C@]3(C)[C@H](CC[C@@H]4[C@@]5(C)CC[C@H](O)C(C)(C)[C@@H]5CC[C@]43C)[C@H]2[C@H]1O`
[A] inactive

[Q] Just curious, what result did Cc1[nH]c(C(=O)Nc2ccccc2OC2CCNC2)c(Cl)c1Cl (stereo not given) get here?
[A] inactive

[Q] Just curious, what result did `COc1ccc(-c2ccc(-c3ccc(C(=N)N)o3)o2)cc1` get here?
[A] inactive

[Q] Assay outcome for C=C1CC[C@@H]2[C@](C)(COC(C)=O)[C@H](OC(C)=O)CC[C@@]2(C)[C@@H]1CC(Nc1ccc(S(=O)(=O)Nc2nccc(C)n2)cc1)C1=CCOC1=O (stereo not given in full) : what was it?
[A] active

[Q] Look up the recorded call for O=C1OCC2=C1C(c1cccc(F)c1)c1cc3c(cc1N2CCO)CCC3 (stereo not given) in this test.
[A] inactive

====

System: IGROV1 ovarian
assay.explanation: NCI-60 one-dose screen, 48 h (100 = growth as untreated, 0 = no growth, -100 = all killed)
measurement.parameters: 10 µM unless noted
Compounds without any hit were thinned out: in the full panel of roughly 83,000, 20% have a hit.
growth for assorted compounds
# unit: % | format: bare number

// solved cases for growth follow
[Q] Sample `O=c1ccc2nc(-c3ccccc3)nn(-c3ccccn3)c-2c1` — what was its growth?
[A] 89

[Q] growth lookup needed for CCOC(=O)C1=C(c2ccccc2)N=C2SC=C(c3cccc([N+](=O)[O-])c3)N2C1c1ccc(O)cc1 (stereo not given) , thanks.
[A] 95.5

[Q] Sample `CN(C)CCOc1ccc(/C(=C(/CCCCCCCCCC[P+](c2ccccc2)(c2ccccc2)c2ccccc2)c2ccccc2)c2ccccc2)cc1` — what was its growth?
[A] -76.5

[Q] // query growth value for entry `C=CC(=O)NCc1cccc(Nc2ncc(Br)c(NCCCNC(=O)C3CCC3)n2)c1`
[A] 1.89

[Q] Name the reported growth value associated with the compound `c1ccc2[nH]c(-c3ccc(-c4nccc5c4[nH]c4ccccc45)cc3)nc2c1`
[A] 94.5

From here, focus on the item given below.
[Q] Could you tell me which growth is on file for C=CCOC(=O)C1=C(C)N(CC)C(=O)N(CC)C1c1c(Cl)n(C)c2ccccc12 (stereo not given) ?
[A] 90.9

====

System: NCI-H522 lung
assay.explanation: NCI-60 one-dose screen, 48 h (100 = growth as untreated, 0 = no growth, -100 = all killed)
measurement.parameters: 10 µM unless noted
The panel holds about 83,000 compounds, 20% with a hit somewhere; the sample as a whole holds those more often.
Think of 70% as a floor: if growth stands on it or above, it is Met; beneath it, Not met.

[Q] Exam item: decide whether the reported growth for CCN1C(=O)N(CC)C2C1NN=c1s/c(=C\c3ccccc3)c(=O)n12 (stereo not drawn) is at least 70%.
[A] Not met

[Q] Kindly determine if growth recorded for `O=c1c2cccc3c(N4CCOCC4)ccc(c32)c2nc3ccccc3n12` is above or exactly 70%.
[A] Met

[Q] Answer whether growth of `O=c1cc(-c2nccc3c2[nH]c2ccccc23)c2cc(Cl)ccc2o1` is greater than or equal to 70%.
[A] Not met

[Q] Identify whether the reported growth of the following compound is 70% or greater: `COC(=O)[C@H](C)NC(=O)[C@@H]1CCCN1C(=O)CNC(=O)[C@H](C)N`
[A] Met

[Q] Item C=C(CNCCO)[C@@H]1CC[C@]2(CO)CC[C@]3(C)[C@H](CC[C@@H]4[C@@]5(C)CCC(NCCO)C(C)(C)[C@@H]5CC[C@]43C)[C@@H]12 (stereo partly drawn) with growth of 70% or above?
[A] Not met

[Q] Could you tell me if the measured growth of `CO[C@]12C=C/C(=C(/C(=O)OCc3cccnc3)C(=O)CCCCCCCC[C@]3(OC)C=C/C(=C(/C(=O)OCc4cccnc4)C(=O)CCCCCCCC1)O3)O2` reaches 70% or more?
[A] Not met

[Q] Does the compound Cc1ccc(C2(C)NC(=O)N(CC(=O)Nc3cccc(C)c3)C2=O)cc1 (stereo not drawn) have recorded growth that is 70% or more?
[A] Met
